test system: S. pyogenes; assay: In vitro antibacterial activity, MIC by broth dilution in 96-well trays; format: cell-based; conditions: Streptococcus pyogenes, S. pyogenes strain 4
Where a name gives a salt, the structure may show the parent alone.

# molecule, MIC
measured = [
    ("CC1(C)S[C@@H]2[C@H](N=CN3CCC(Cc4ncc[nH]4)CC3)C(=O)N2[C@H]1C(=O)O [Q, hydrochloride]", "1 µg/mL"),
    ("CC1(C)S[C@@H]2[C@H](N=CN3CCCC(c4ncc[nH]4)C3)C(=O)N2[C@H]1C(=O)O (some centres unmarked) [P, hydrochloride]", "0.5 µg/mL"),
    ("CN(C)C=Nc1nccn1CCCC1CCN(C=N[C@@H]2C(=O)N3[C@@H]2SC(C)(C)[C@@H]3C(=O)O)CC1 [S, hydrate]", "0.25 µg/mL"),
    ("CC1(C)S[C@@H]2[C@H](N=CN3CCC(CCCn4ccnc4CO)CC3)C(=O)N2[C@H]1C(=O)O [R, hydrate]", "0.5 µg/mL"),
    ("CC1(C)S[C@@H]2[C@H](N=CN3CCC(CC4=NCCCN4)CC3)C(=O)N2[C@H]1C(=O)O [Compound U, hydrochloride]", "4 µg/mL"),
]
